test system: MV4-11; experiment: Antiproliferative activity against human MV4-11 cells assessed as reduction in cell viability measured after 4 days by MTT assay; format: functional, cell-based; conditions: MV4-11, 96 h
pIC50: −log10 of the molar value.
# binarize pIC50: threshold 8 inclusive, high side class 1, low side class 0

Q) Decide: is the reported value of pIC50 for CC[C@@H]1c2nnc(C)n2-c2cnc(Nc3ccc(C(=O)NC4CCN(CCCCCCCCOc5cccc6c5C(=O)N(C5CCC(=O)NC5=O)C6=O)CC4)cc3OC)nc2N1CC1CCCCC1 (stereo partly specified) equal to or greater than 8?
A) class 0

Q) Decide: is the reported value of pIC50 for CC[C@@H]1c2nnc(C)n2-c2cnc(Nc3ccc(C(=O)NC4CCN(C(=O)CCCOc5cccc6c5C(=O)N(C5CCC(=O)NC5=O)C6=O)CC4)cc3OC)nc2N1CC1CCCCC1 (stereo partly specified) equal to or greater than 8?
A) class 0

Q) Decide: is the reported value of pIC50 for CC[C@@H]1c2nnc(C)n2-c2cnc(Nc3ccc(C(=O)NC4CCN(CCCCCCCCCCOc5cccc6c5C(=O)N(C5CCC(=O)NC5=O)C6=O)CC4)cc3OC)nc2N1CC1CCCCC1 (stereo partly specified) equal to or greater than 8?
A) class 0

Q) Decide: is the reported value of pIC50 for CC[C@@H]1c2nnc(C)n2-c2cnc(Nc3ccc(C(=O)NC4CCN(C(=O)COc5cccc6c5C(=O)N(C5CCC(=O)NC5=O)C6=O)CC4)cc3OC)nc2N1CC1CCCCC1 (stereo partly specified) equal to or greater than 8?
A) class 1

---

system: PC-3; assay: Antiproliferative activity against AR-negative human castration resistant PC-3 cells assessed as reduction in cell viability measured after 4 days by MTT assay; format: functional, cell-based; settings: PC-3, 96 h
observable: IC50 (µM)
Record the value in µM, omitting the unit from your answer.

Q) Item under review: CC[C@@H]1c2nnc(C)n2-c2cnc(Nc3ccc(C(=O)NC4CCN(C(=O)COc5cccc6c5C(=O)N(C5CCC(=O)NC5=O)C6=O)CC4)cc3OC)nc2N1CC1CCCCC1 (some centres not stated) . Reported IC50?
A) 2.44

Q) Item under review: CC[C@@H]1c2nnc(C)n2-c2cnc(Nc3ccc(C(=O)NC4CCN(C)CC4)cc3OC)nc2N1CC1CCCCC1 . Reported IC50?
A) 1.4
